Hey, just so you know, these numbers are from ChEMBL document CHEMBL1629491.

Exercise: state measured log10(MIC) for each of the molecules provided.
Tested on: Staphylococcus aureus
testSummary: Antimicrobial activity against Staphylococcus aureus after 24 hrs […]
Format: functional
Field: value | Transform: log10 | Quantity: MIC | Unit: µg/mL

sampleSmiles	reportedResult
O=[N+]([O-])c1ccc2nc(-c3ccc4nc(-c5ccc(Br)cc5)c(Nc5ccccc5)n4c3)[nH]c2c1	1.01
O=[N+]([O-])c1ccc2nc(-c3cnc4nc(-c5ccc(Br)cc5)c(Nc5ccccc5)n4c3)[nH]c2c1	0.97
C=CC1=C(C(=O)O)N2C(=O)[C@@H](NC(=O)/C(=N\OCC(=O)O)c3csc(N)n3)[C@H]2SC1	1.53
Fc1ccc2nc(-c3ccc4nc(-c5ccc(Oc6ccccc6)cc5)c(Nc5ccccc5)n4c3)[nH]c2c1	1.08
Clc1ccc(-c2cnc(-c3cnc4nc(-c5ccc(Br)cc5)c(Nc5ccccc5)n4c3)[nH]2)cc1	0.25
Fc1ccc2nc(-c3cnc4nc(-c5ccc(Br)cc5)c(Nc5ccccc5)n4c3)[nH]c2c1	0.09
Fc1ccc2nc(-c3ccc4nc(-c5ccc(Br)cc5)c(Nc5ccccc5)n4c3)[nH]c2c1	0.18

GET /value?item= "Cc1ccc2nc(-c3ccc4nc(-c5ccc(Br)cc5)c(Nc5ccccc5)n4c3)[nH]c2c1" &field=log10(MIC) returns 0.98
